# credit: patent US20180171001A1

Biological target: Env of HIV-1 strain PVO.4 (HIV-1)
Test: cell-based or functional assay

binder	modifierSign	neutralization IC50, µg/mL
γ23κ18 (antibody, V domains shown) VH: QIHLVQSGTEVKKPGSSVTVSCKAYGVNTFGLYAVNWVRQAPGQSLEYIGQIWRWKSSASHHFRGRVIISAVDLTGSSPPISSLEIKNLTSDDTAVYFCTTTSTSDYWSGLHHDGVMAFSSWGQGTLISVSA VL: DIQMTQSPSTLSASVGDTVRISCRASQSITGGWLAWYHQRPGKAPRLLIYRGSRLLGGVPSRFSGSAAGADFTLTIANLQAEDFGTFYCQQYDTYPGTFGQGTKVEVKR	=	0.047
γ20κ19 (antibody, V domains shown) VH: QIHLVQSGTEVKKPGSSVAVSCKAYGVNTFGLYAVNWVRQAPGQSLEYIGQIWRWKSSASHDFRGRVIISAVDLTGSSPPISSLEIKNLTSDDTAVYFCTATSTPDYWSGLHHDGVMAFSSWGQGTLISVSA VL: DIQMTQSPSTLSASVGDTVRISCRASQSITGGWLAWYHQRPGKAPRLLIYRGSRLLGGVPSRFSGSAAGTGFTLTIANLQAEDFGTFYCQQYDTYPGTFGQGTKVEVKR	>	15
